assay: Cmax in Sprague-Dawley rat at 12 mg/kg, po by UPLC-MS/MS analysis; format: ADME, organism-based; set-up: dose 12 mg/kg, route oral; settings: in vivo
Parameter Measured: Cmax (µM)
Provide the reading as a plain figure in µM.

Exercise: So what does the record say about Cmax for O=C1N[C@@H](CO)C(=O)N2C[C@H](O)C[C@@H]12 ?
Solution: 27.8

---

assay: Half life in Sprague-Dawley rat liver homogenates at 5 mM by HPLC analysis; type: ADME, tissue-based
Hi there, I'd appreciate the recorded half-life at 5000 µM for every entry that follows.
Value expressed in min; do not type the unit.

Exercise: I have this molecule here, CC(C)[C@H](N)C(=O)O[C@@H]1C[C@H]2C(=O)N[C@@H](CO)C(=O)N2C1 , and I need its recorded half-life at 5000 µM.
Solution: 126

Exercise: And what about the molecule N[C@@H](Cc1ccccc1)C(=O)OC[C@@H]1NC(=O)[C@@H]2C[C@@H](O)CN2C1=O ?
Solution: 9.6

Exercise: Now give it for CC(C)[C@H](N)C(=O)OC[C@@H]1NC(=O)[C@@H]2C[C@@H](O)CN2C1=O too.
Solution: 51.6

Exercise: Thanks! And CC(C)C[C@H](N)C(=O)OC[C@@H]1NC(=O)[C@@H]2C[C@@H](O)CN2C1=O ?
Solution: 9.6

Exercise: Check CCC(C)[C@H](N)C(=O)OC[C@@H]1NC(=O)[C@@H]2C[C@@H](O)CN2C1=O (stereo partly specified) too.
Solution: 288
